B1: VTI1B (parent)
chain: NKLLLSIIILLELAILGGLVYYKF

variants of: B1; test: protein stability index of a GFP-peptide fusion (GPS, HEK-293T) (PSI 1-6); higher = more stable; conditions: c terminus: a fixed tail appended;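 also: lentivirally expressed fusions sorted by FACS into six bins by GFP to DsRed ratio, PSI derived from sequencing read proportions per bin multiplied by bin number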
Output TRUE for protein stability index not less than 3; output FALSE otherwise.

Given `NKLLLSIIILWELAILGGLVYYKF` , state whether its protein stability index is at least 3.
TRUE

Given `NKLLQSIIILLELAILGGLVYYKF` , state whether its protein stability index is at least 3.
TRUE

Given `NKLLLSIIELLELAILGGLVYYKF` , state whether its protein stability index is at least 3.
FALSE

Given `NKLLLFIIILLELAILGGLVYYKF` , state whether its protein stability index is at least 3.
FALSE

Given `NKLLLSIIGLLELAILGGLVYYKF` , state whether its protein stability index is at least 3.
FALSE

Given `NKLLLSIIILCELAILGGLVYYKF` , state whether its protein stability index is at least 3.
FALSE

Given `NKLLLTIIILLELAILGGLVYYKF` , state whether its protein stability index is at least 3.
TRUE

Given `NKLLLSIIILLEMAILGGLVYYKF` , state whether its protein stability index is at least 3.
TRUE

Given `NKLLLSIIILLELAFLGGLVYYKF` , state whether its protein stability index is at least 3.
FALSE

Given `NKLLLSIIILLELAILDGLVYYKF` , state whether its protein stability index is at least 3.
FALSE

Given `NKLLLSIFILLELAILGGLVYYKF` , state whether its protein stability index is at least 3.
FALSE

Given `FKLLLSIIILLELAILGGLVYYKF` , state whether its protein stability index is at least 3.
FALSE

Given `NKLLLSIIILLELAILGGLVYYRF` , state whether its protein stability index is at least 3.
FALSE
